These measurements were taken from the supplement of paper PMC8728848.

Biological target: Fuc(a1-3)[Gal(b1-4)]GlcNAc(b1-2)Man(a1-3)[Fuc(a1-3)[Gal(b1-4)]GlcNAc(b1-2)Man(a1-6)]Man(b1-4)GlcNAc(b1-4)GlcNAc
Assay: glycan array binding signal (z-score within array); higher = stronger binding
Conditions: glycan notation: IUPAC condensed, linker removed
The full list was thinned out, with the strongest signals kept by preference.
measurement name: glycan array binding signal (z-score)
Number only, no unit.

Please report the recorded glycan array binding signal (z-score) for GH98CBM (Clostridium perfringens) (protein) EVYALEESRDVYLSDLDWLNATHGDDTKSKIVQKNHPFTPGNNNQSTKISLKMEDGSISEFEKGLGTIAGSPSTITYDISGAGVTKFFSYLGIDRSANPINEQYAKVDKIEVVVDGKVIYSTINQFPNGLTYETPAIKVDLNIPENAKRLQLKSYAGEKTWGDEVVYADAKFTAKGDFVN .
0.041
